# testTarget: human TOR (FLAG-TOR) (Homo sapiens)
# testDescription: mTOR enzyme assay (DELFIA format, purified enzyme)
# conditionDescription: 800 ng/ml FLAG-TOR, 100 μM ATP, 1.25 μM His6-S6K; read-out: mTOR Kinase IC50
pIC50: −log10 of the molar value.
reportedMetric: pIC50

Examples with answers:
CC(=O)Nc1ccc2[nH]c(=O)cc(Oc3ccccc3)c2c1	< 4.70
O=c1cc(Oc2cccc(-c3cnn(CCN4CCOCC4)c3)c2)c2ccccc2[nH]1	6.85
Nc1ccc(-c2ccc(Oc3cc(=O)[nH]c4ccccc34)cc2)cc1	< 4.70

Then there is this compound:
q: Bench note: what pIC50 did `Cn1cc(-c2ccc3[nH]c(=O)cc(Oc4ccccc4)c3c2)cn1` show?
a: < 4.70
